# Papp per record follows
# protocol description: PAMPA permeability of pure compounds under sink conditions
# Type: in vitro ADME
# cond: PAMPA, detergents in donor and acceptor wells (sink conditions), read-out: PAMPA Perm.
Square brackets hold non-standard residues; d marks the D form. Peptide text beside a SMILES is read from it. Gly(N-CH2-oxan-4-yl) = O=C(O)CNCC1CCOCC1; NMeL = CN[C@@H](CC(C)C)C(=O)O; NMeA = CN[C@@H](C)C(=O)O; NEtG = CCNCC(=O)O
Hi! Could you send only the number? It should be in ×10⁻⁶ cm/s, unit omitted.

Example entries begin here.
INSERT INTO measurements (compound, observation_type, unit_string, readout_number) VALUES
  ('CCN1CC(=O)N[C@@H](CC(C)C)C(=O)N(C)[C@@H](C)C(=O)N[C@@H](CC(C)C)C(=O)N2CCC[C@@H]2C(=O)N(CC2CCOCC2)CC(=O)N[C@@H](CC(C)C)C(=O)N(C)[C@@H](C)C(=O)N[C@@H](Cc2ccccc2)C(=O)N2CCC[C@@H]2C1=O [Compound A09] (cyclo([NEtG]L[NMeA]L[dP][Gly(N-CH2-oxan-4-yl)]L[NMeA]F[dP]))', 'Papp', '×10⁻⁶ cm/s', 35),
  ('CCN1CC(=O)N[C@@H](CC(C)C)C(=O)N2CCC[C@@H]2C(=O)N(C)[C@@H](CC(C)C)C(=O)N[C@@H](C)C(=O)N(CC2CCOCC2)CC(=O)N[C@@H](Cc2ccccc2)C(=O)N2CCC[C@@H]2C(=O)N(C)[C@@H](CC(C)C)C(=O)N[C@@H](C)C1=O [Compound B09] (cyclo(A[NEtG]L[dP][NMeL]A[Gly(N-CH2-oxan-4-yl)]F[dP][NMeL]))', 'Papp', '×10⁻⁶ cm/s', 0.7);

The compound identified as CCN1CC(=O)N[C@@H](CC(C)C)C(=O)N(C)[C@@H](C)C(=O)N[C@@H](CC(C)C)C(=O)N2CCC[C@@H]2C(=O)N(CC2CCOCC2)CC(=O)N[C@@H](CC(C)C)C(=O)N(C)[C@@H](C)C(=O)N[C@@H](C)C(=O)N2CCC[C@@H]2C1=O [Compound A03] (cyclo([NEtG]L[NMeA]L[dP][Gly(N-CH2-oxan-4-yl)]L[NMeA]A[dP])) registered its Papp at 18

The values you see were collected from patent US11939403B2.
